# Lookup of reported speed of sound keyed by entry
# Test Summary: mn = molality of the nth substance listed, in mol/kg
# Setup Conditions: 288.15 K; 75 kPa; Liquid; Frequency=3 MHz; Single path-length method; m1 = 1.132
Metric: speed of sound (m/s)

* NCCC(=O)O [3-aminopropanoic acid] + O | 1537.5
* NCCCCCC(=O)O [6-aminohexanoic acid] + O | 1595.3
* NCC(=O)O [2-aminoacetic acid] + O | 1527.5
* NCCCC(=O)O [4-aminobutanoic acid] + O | 1554.5

---

# Test Summary: mn = molality of the nth substance listed, in mol/kg
# Setup Conditions: 288.15 K; 75 kPa; Liquid; Vibrating tube method; m1 = 1.132
Metric: mass density (kg/m3)

- NCCCCCC(=O)O [6-aminohexanoic acid] + O: 1026.99
- NCC(=O)O [2-aminoacetic acid] + O: 1030.68
- NCCC(=O)O [3-aminopropanoic acid] + O: 1031.61
- NCCCC(=O)O [4-aminobutanoic acid] + O: 1030.5

---

# Lookup of reported speed of sound keyed by entry
# Test Summary: mn = molality of the nth substance listed, in mol/kg
# Setup Conditions: 303.15 K; 75 kPa; Liquid; Frequency=3 MHz; Single path-length method; m1 = 1.132
Metric: speed of sound (m/s)

• NCC(=O)O [2-aminoacetic acid] + O = 1564.5
• NCCCC(=O)O [4-aminobutanoic acid] + O = 1591.8
• NCCC(=O)O [3-aminopropanoic acid] + O = 1574.7
• NCCCCCC(=O)O [6-aminohexanoic acid] + O = 1622.5

---

# Test Summary: mn = molality of the nth substance listed, in mol/kg
# Setup Conditions: 293.15 K; 75 kPa; Liquid; Vibrating tube method; m1 = 1.132
Numbers after ± are expanded uncertainties.
# Lookup of reported mass density keyed by entry
Metric: mass density

• NCCC(=O)O [3-aminopropanoic acid] + O = 1030.4 ± 0.3 kg/m3
• NCCCCCC(=O)O [6-aminohexanoic acid] + O = 1025.6 ± 0.3 kg/m3
• NCCCC(=O)O [4-aminobutanoic acid] + O = 1029.32 ± 0.3 kg/m3
• NCC(=O)O [2-aminoacetic acid] + O = 1029.37 ± 0.3 kg/m3

---

# Test Summary: mn = molality of the nth substance listed, in mol/kg
# Setup Conditions: 308.15 K; 75 kPa; Liquid; Vibrating tube method; m1 = 1.132
Numbers after ± are expanded uncertainties.
Metric: mass density

• NCCC(=O)O [3-aminopropanoic acid] + O = 1025.53 ± 0.3 kg/m3
• NCCCC(=O)O [4-aminobutanoic acid] + O = 1024.37 ± 0.3 kg/m3
• NCCCCCC(=O)O [6-aminohexanoic acid] + O = 1020.64 ± 0.3 kg/m3
• NCC(=O)O [2-aminoacetic acid] + O = 1024.55 ± 0.3 kg/m3

---

# Lookup of reported speed of sound keyed by entry
# Test Summary: mn = molality of the nth substance listed, in mol/kg
# Setup Conditions: 308.15 K; 75 kPa; Liquid; Frequency=3 MHz; Single path-length method; m1 = 1.132
Metric: speed of sound (m/s)

• NCC(=O)O [2-aminoacetic acid] + O = 1573.4
• NCCCCCC(=O)O [6-aminohexanoic acid] + O = 1628.4
• NCCC(=O)O [3-aminopropanoic acid] + O = 1582.3
• NCCCC(=O)O [4-aminobutanoic acid] + O = 1599.8

Cited source: the NIST ThermoML archive (doi:10.1021/acs.jced.8b00236)
